Please respond with reported IC50 for every item in the list.
Biological target: Tyrosine-protein phosphatase non-receptor type 1 (Homo sapiens)
Sequence (P18031 whole entry): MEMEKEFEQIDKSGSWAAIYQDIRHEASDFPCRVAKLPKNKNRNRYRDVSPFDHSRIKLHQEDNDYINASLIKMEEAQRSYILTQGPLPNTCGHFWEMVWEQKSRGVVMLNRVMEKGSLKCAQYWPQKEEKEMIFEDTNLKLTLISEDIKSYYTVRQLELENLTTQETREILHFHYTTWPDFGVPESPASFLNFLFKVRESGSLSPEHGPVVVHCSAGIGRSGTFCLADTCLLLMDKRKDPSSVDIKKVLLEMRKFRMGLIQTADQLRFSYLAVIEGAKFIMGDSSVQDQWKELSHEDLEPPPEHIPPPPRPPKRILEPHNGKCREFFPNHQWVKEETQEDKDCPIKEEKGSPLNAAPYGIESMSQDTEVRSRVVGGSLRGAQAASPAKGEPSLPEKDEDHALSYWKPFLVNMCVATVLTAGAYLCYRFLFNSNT
Assay: Inhibition of PTP1B (unknown origin)
Lab book: enter the figure in µM, no units written.

Entry CC(C)=C[C@@H]1C[C@](O)([C@H]2CC[C@]3(C)[C@@H]2CC[C@@H]2[C@@]4(C)CC[C@H](O)C(C)(C)[C@@H]4CC[C@]23C)C(=O)O1 — recorded IC50 = 27.8

Entry CC1(C)[C@@H](O)CC[C@]2(C)[C@H]3CC[C@@H]4[C@@H](C(=O)O)CC[C@@]4(C)[C@]3(C)CC[C@@H]12 — recorded IC50 = 13.1

Entry CC(C)=CCC[C@](C)(O)[C@H]1CC[C@]2(C)[C@@H]1[C@H](O)C[C@@H]1[C@@]3(C)CC[C@H](O)C(C)(C)[C@@H]3CC[C@]12C — recorded IC50 = 23.6

###

Please respond with reported IC50 for every item in the list.

Summary line: C=C(C)[C@@H](O)CC[C@](C)(O)[C@H]1CC[C@]2(C)[C@@H]1[C@H](O)C[C@@H]1[C@@]3(C)CC[C@H](O)C(C)(C)[C@@H]3CC[C@]12C , Tyrosine-protein phosphatase non-receptor type 1 (Homo sapiens), reported IC50 = > 50 µM

Summary line: CC(C)=C1CC=C([C@H]2CC[C@]3(C)[C@@H]2CC[C@@H]2[C@@]4(C)CC[C@H](O)C(C)(C)[C@@H]4CC[C@]23C)C1=O , Tyrosine-protein phosphatase non-receptor type 1 (Homo sapiens), reported IC50 = > 50 µM

Summary line: CC(C)=C[C@H]1C=C([C@H]2CC[C@]3(C)[C@@H]2CC[C@@H]2[C@@]4(C)CC[C@H](O)C(C)(C)[C@@H]4CC[C@]23C)C(=O)O1 , Tyrosine-protein phosphatase non-receptor type 1 (Homo sapiens), reported IC50 = > 50 µM
